System: Rhynchosporium commune
Experiment: Leaf blotch of barley, whole-plant fungicidal activity (RHYNSE)
Assay type: in vivo
Conditions: 24 h, 1DP (1 day protectant), read-out: % Disease Control Rating RHYNSE
experimental-endpoint: pest or weed control at 200 ppm

>  <mol-smiles>
CCN(C)/C=N/c1ccc(C(=O)Cc2cccc(C(F)(F)F)c2)c(C)c1C

>  <system>
Rhynchosporium commune

>  <pest or weed control at 200 ppm>
20 to 50%

$$$$

// each listed molecule needs a value for pest or weed control at 200 ppm
1. CCN(C)/C=N/c1cc(OC)c(C(=O)CC2CCCC2)cc1C
2. Cc1cc(C(=O)CC2CCCCC2)c(C)cc1/N=C/N(C)Cc1ccccc1
3. CCN(C)/C=N/c1cc(C)c(C(=O)Cc2ccccc2F)cc1C
4. CCN(C)/C=N/c1cc(C)c(C(=O)CC2CCCC2)cc1OC

Output line:
["> 85%", "< 20%", "> 85%", "50 to 85%"]

---

System: Rhynchosporium commune
Test: Leaf blotch of barley, whole-plant fungicidal activity (RHYNSE)
Assay type: in vivo
Conditions: 24 h, 1DP (1 day protectant), read-out: % Disease Control Rating RHYNSE
Exercise: state measured pest or weed control at 200 ppm for each of the compounds provided.

>  <mol-smiles>
Cc1cc(C(=O)CC2CCCCC2)c(C)cc1/N=C(\S)N(C)c1ccccc1

>  <pest or weed control at 200 ppm>
< 20%

$$$$
>  <mol-smiles>
Cc1cc(C(=O)CC2CCCCC2)c(C)cc1/N=C(\S)N1CCCC1

>  <pest or weed control at 200 ppm>
< 20%

$$$$
>  <mol-smiles>
Cc1cc(C(=O)CC2CCCCC2)c(C)cc1/N=C/N(C)C(C)C

>  <pest or weed control at 200 ppm>
> 85%

$$$$

Could you report pest or weed control at 200 ppm for every entry in the following list?
1. CCN(C)/C=N/c1cc(C)c(C(=O)Cc2cccc(OC(F)F)c2)cc1C
2. CCN(C)/C=N/c1cc(C)c(C(=O)C2CCCCC2)cc1C
3. CCc1cccc(CC(=O)c2cc(C)c(/N=C/N(C)CC)cc2C)c1
4. CCc1ccc(CC(=O)c2cc(C)c(/N=C/N(C)CC)cc2C)cc1
5. CCN(C)/C=N/c1cc(C)c(C(=O)Cc2ccc(Cl)cc2)cc1C
6. C=CCN(C)/C(S)=N/c1cc(C)c(C(=O)CC2CCCCC2)cc1C

Output line:
["> 85%", "> 85%", "> 85%", "> 85%", "50 to 85%", "< 20%"]

State the recorded pest or weed control at 200 ppm for every item in the following list.
1. CC/C(=N\c1cc(C)c(C(=O)CC2CCCC2)cc1C)N(C)CC
2. CCN(C)/C=N/c1cc(C)c(C(=O)CC(C)(C)C)cc1C
3. CCN(C)/C=N/c1cc(C)c(C(=O)Cc2ccccc2C)cc1C

Output line:
1: < 20%; 2: > 85%; 3: > 85%

For each of the compounds below, note its pest or weed control at 200 ppm.
1. CCN(C)/C=N/c1ccc(C(=O)CCC(F)(F)F)c(C)c1C
2. CCN(C)/C=N/c1cc(C)c(C(=O)CCC(F)(F)C(F)(F)F)cc1C
3. CCN(C)/C=N/c1cc(F)c(C(=O)CC2CCCC2)cc1C
4. CCN(C)/C=N/c1cc(C)c(C(=O)Cc2ccc(OC(F)(F)F)cc2)cc1C

Output line:
1. < 20%
2. > 85%
3. < 20%
4. > 85%
